molecular target: T1, sstr3 (UniProt P32745 1-418, limits assumed); assay: competitive filtration binding assay, displacement of [^125I]-Tyr-somatostatin-14 (0.2 nM) from CHO-K1 membranes
T1 construct: whole, on cells; Membranes of transfected CHO-K1 cells; The species is printed only for sstr2 (human); also called somatostatin receptor subtype 3
T1 sequence (P32745 whole entry): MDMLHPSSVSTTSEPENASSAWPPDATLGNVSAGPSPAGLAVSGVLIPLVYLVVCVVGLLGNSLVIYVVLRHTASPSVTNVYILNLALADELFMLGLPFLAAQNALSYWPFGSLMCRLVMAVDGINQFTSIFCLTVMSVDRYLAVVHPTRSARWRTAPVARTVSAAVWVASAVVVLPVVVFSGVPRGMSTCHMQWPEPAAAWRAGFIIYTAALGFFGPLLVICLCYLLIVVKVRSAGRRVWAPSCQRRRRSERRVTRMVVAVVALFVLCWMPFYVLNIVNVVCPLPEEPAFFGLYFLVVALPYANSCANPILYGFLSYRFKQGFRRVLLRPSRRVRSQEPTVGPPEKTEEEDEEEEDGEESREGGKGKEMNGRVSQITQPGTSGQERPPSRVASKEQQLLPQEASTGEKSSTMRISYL
Bridge positions count the residues as written; N and C are the ends. Square brackets hold non-standard residues; d marks the D form. AMBF3 = N,N-dimethylammoniomethyl-trifluoroborate
property-name: pKi
# reply with the number alone; pKi is -log10 of concentration in mol/L

IN: Dear colleague, I am looking for the recorded pKi of the following binder: {AMBF3-triazolylacetyl}-[dF]CY[dW]KTCT-OH (disulfide 2-7, Free C-terminal acid (octreotate); also called ^19F-AMBF3-TATE; ^18F-AMBF3-TATE) [AMBF3-TATE]
OUT: 7.55

Measured values drawn from patent US20160333068A1 for this set.
